Assignment: determine reported Ki for the given molecules.
target_or_system: Sortase A (Staphylococcus aureus, UniProt Q9S446)
Sequence (Q9S446 whole entry): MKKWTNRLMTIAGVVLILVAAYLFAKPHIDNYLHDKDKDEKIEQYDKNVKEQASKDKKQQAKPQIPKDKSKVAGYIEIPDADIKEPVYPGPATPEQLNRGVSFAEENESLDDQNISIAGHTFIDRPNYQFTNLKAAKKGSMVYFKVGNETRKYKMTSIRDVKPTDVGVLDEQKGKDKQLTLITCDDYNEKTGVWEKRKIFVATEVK
*1 amine or outer side, *2 acyl side, *3 side chain or, on linkers, in order; H or OH if unused. Where a SMILES comes first, the peptide text is derived from it. Bridges are numbered along the chain shown (N, C = ends). TBMB = c1c(C[*:1])cc(C[*:3])cc1C[*:2]; mXylylene = c1cc(C[*:1])cc(C[*:2])c1
Answers are plain numbers, in µM.

Below, 10 molecules whose answers are already recorded.
molecule | target_or_system | Ki / µM
CC(C)C[C@@H]1NC(=O)[C@H](CCC(N)=O)NC(=O)[C@@H]2CCCN2C(=O)[C@@H]2CSCc3cc(cc(c3)CSC[C@@H](C(=O)NCC(=O)O)NC(=O)[C@@H]3CCCN3C(=O)[C@@H]3CCCN3C1=O)CSC[C@H](NC(=O)[C@H](C)N)C(=O)N[C@@H]([C@@H](C)O)C(=O)N[C@@H](CO)C(=O)N[C@@H](CCCNC(=N)N)C(=O)N2 (H-ACTSRCPQLPPCG-OH; linker 2-6-12 via TBMB) | Sortase A (Staphylococcus aureus, UniProt Q9S446) | 1.8
CC(C)C[C@@H]1NC(=O)[C@@H]2CCCN2C(=O)[C@@H](NC(=O)[C@H](C)N)CSCc2cc3cc(c2)CSC[C@H](NC(=O)[C@@H]2CCCN2C(=O)[C@@H]2CCCN2C(=O)[C@H](CC(C)C)NC1=O)C(=O)N[C@@H](C)C(=O)N[C@@H](CC(=O)O)C(=O)N[C@@H](CC(=O)O)C(=O)N[C@H](C(=O)NCC(N)=O)CSC3 (H-ACPLLPPCADDCG-NH2; linker 2-8-12 via TBMB) | Sortase A (Staphylococcus aureus, UniProt Q9S446) | 3
CC(C)C[C@@H]1NC(=O)[C@H](CCC(N)=O)NC(=O)[C@@H]2CCCN2C(=O)[C@@H](NC(=O)[C@H](C)N)CSCc2cc3cc(c2)CSC[C@H](NC(=O)[C@@H]2CCCN2C(=O)[C@@H]2CCCN2C1=O)C(=O)N[C@@H](CCCNC(=N)N)C(=O)N[C@@H](C(C)C)C(=O)N[C@@H](CO)C(=O)N[C@H](C(=O)NCC(N)=O)CSC3 (H-ACPQLPPCRVSCG-NH2; linker 2-8-12 via TBMB) | Sortase A (Staphylococcus aureus, UniProt Q9S446) | 4.3
CC[C@H](C)[C@@H]1NC(=O)[C@H](CO)NC(=O)[C@@H](NC(=O)[C@H](C)N)CSCc2cc3cc(c2)CSC[C@H](NC(=O)[C@@H]2CCCN2C(=O)[C@@H]2CCCN2C(=O)[C@H](CC(C)C)NC1=O)C(=O)N[C@H](CC(N)=O)C(=O)N1CCC[C@H]1C(=O)N1CCC[C@H]1C(=O)N[C@@H](CCC(N)=O)C(=O)N[C@H](C(=O)NCC(N)=O)CSC3 | Sortase A (Staphylococcus aureus, UniProt Q9S446) | 11.1
CC(C)C[C@@H]1NC(=O)[C@@H](NC(=O)[C@H](C)N)CSCc2cc3cc(c2)CSC[C@H](NC(=O)[C@@H]2CCCN2C(=O)[C@@H]2CCCN2C(=O)[C@H](CC(C)C)NC(=O)[C@H](CCC(N)=O)NC1=O)C(=O)N[C@@H](CO)C(=O)N[C@@H](CO)C(=O)N1CCC[C@H]1C(=O)N[C@H](C(=O)NCC(N)=O)CSC3 (H-ACLQLPPCSSPCG-NH2; linker 2-8-12 via TBMB) | Sortase A (Staphylococcus aureus, UniProt Q9S446) | 11.6
CC(C)C[C@@H]1NC(=O)[C@H](CCC(N)=O)NC(=O)[C@@H]2CCCN2C(=O)[C@@H]2CSCc3cc(cc(c3)CSC[C@@H](C(=O)NCC(N)=O)NC(=O)[C@@H]3CCCN3C(=O)[C@@H]3CCCN3C1=O)CSC[C@H](NC(=O)[C@H](C)N)C(=O)N[C@@H]([C@@H](C)O)C(=O)N[C@@H](CCC(N)=O)C(=O)N[C@@H](CCCNC(=N)N)C(=O)N2 (H-ACTQRCPQLPPCG-NH2; linker 2-6-12 via TBMB) | Sortase A (Staphylococcus aureus, UniProt Q9S446) | 2.4
CC(C)C[C@@H]1NC(=O)[C@H](CCC(N)=O)NC(=O)[C@H](CCCNC(=N)N)NC(=O)[C@H](NC(=O)[C@H](C)N)CSCc2cc3cc(c2)CSC[C@H](C(=O)NCC(N)=O)NC(=O)[C@H](C(C)C)NC(=O)[C@H](Cc2ccc(O)cc2)NC(=O)[C@H](CCC(=O)O)NC(=O)[C@H](C)NC(=O)[C@H](CSC3)NC(=O)[C@@H]2CCCN2C(=O)[C@@H]2CCCN2C1=O | Sortase A (Staphylococcus aureus, UniProt Q9S446) | 45.5
CC(C)C[C@@H]1NC(=O)[C@H](CCC(N)=O)NC(=O)[C@@H]2CCCN2C(=O)[C@@H](NC(=O)[C@H](C)N)CSCc2cccc(c2)CSC[C@@H](C(=O)NCC(N)=O)NC(=O)[C@@H]2CCCN2C(=O)[C@@H]2CCCN2C1=O (H-ACPQLPPCG-NH2; linker 2-8 via mXylylene) | Sortase A (Staphylococcus aureus, UniProt Q9S446) | 4.9
CC[C@H](C)[C@@H]1NC(=O)[C@H](CO)NC(=O)[C@H](CO)NC(=O)[C@@H]2CSCc3cc(cc(c3)CSC[C@@H](C(=O)NCC(N)=O)NC(=O)[C@@H]3CCCN3C(=O)[C@@H]3CCCN3C(=O)[C@H](CC(C)C)NC1=O)CSC[C@H](NC(=O)[C@H](C)N)C(=O)N[C@@H](CCSC)C(=O)N[C@@H](Cc1ccc(O)cc1)C(=O)N[C@@H](CCC(N)=O)C(=O)N[C@@H](C)C(=O)N[C@@H](C)C(=O)N[C@@H](CC(C)C)C(=O)N2 (H-ACMYQAALCSSILPPCG-NH2; linker 2-9-16 via TBMB) | Sortase A (Staphylococcus aureus, UniProt Q9S446) | 9.4
CC[C@H](C)[C@@H]1NC(=O)[C@H](C)NC(=O)[C@@H](NC(=O)[C@H](C)N)CSCc2cc3cc(c2)CSC[C@H](C(=O)NCC(N)=O)NC(=O)[C@H](CCCNC(=N)N)NC(=O)[C@@H]2CCCN2C(=O)[C@H](CCC(N)=O)NC(=O)[C@H](CSC3)NC(=O)[C@@H]2CCCN2C(=O)[C@@H]2CCCN2C(=O)[C@H](CC(C)C)NC1=O | Sortase A (Staphylococcus aureus, UniProt Q9S446) | 21.5

Value lookup for Ki; key = CC(C)C[C@@H]1NC(=O)[C@H](CCC(N)=O)NC(=O)[C@@H]2CCCN2C(=O)[C@@H](NC(=O)[C@H](C)N)CSCc2cc3cc(c2)CSC[C@H](NC(=O)[C@@H]2CCCN2C(=O)[C@@H]2CCCN2C1=O)C(=O)N[C@@H](CCCNC(=N)N)NC(=O)[C@H](C(C)C)NC(=O)[C@H](CO)C(=O)N[C@H](C(=O)NCC(N)=O)CSC3 4.3
